These measurements were taken from patent US20150086555A1.

# target_or_system: recombinant homotrimeric HA A/Vietnam/1203/04 H5N1 (Influenza A virus A/VietNam/1203/2004(H5N1))
# test_details: protein microarray, purified IgG, trimeric HA
# recorded_conditions: remark: other sources report otherwise
measured_property: Trimeric HA Binding: RLU (RLU)
The reply should be a number in RLU, with the unit left off.

binder	units_of_measure	data_value
TCN-530 (5248_H10a) (antibody, V domains shown) VH: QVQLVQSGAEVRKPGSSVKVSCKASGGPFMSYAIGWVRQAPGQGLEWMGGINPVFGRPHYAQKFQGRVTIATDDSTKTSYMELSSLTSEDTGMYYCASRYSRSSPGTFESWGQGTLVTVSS VL: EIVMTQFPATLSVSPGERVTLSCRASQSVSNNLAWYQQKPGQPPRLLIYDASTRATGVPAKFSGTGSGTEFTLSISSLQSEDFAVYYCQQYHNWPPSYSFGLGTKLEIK	RLU	19100

State the recorded Trimeric HA Binding: RLU for this entry: TCN-551 (5243_D01) (antibody, V domains shown) VH: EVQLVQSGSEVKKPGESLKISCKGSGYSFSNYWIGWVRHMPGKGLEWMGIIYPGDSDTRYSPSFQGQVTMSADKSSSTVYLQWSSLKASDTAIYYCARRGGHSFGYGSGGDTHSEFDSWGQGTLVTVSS VL: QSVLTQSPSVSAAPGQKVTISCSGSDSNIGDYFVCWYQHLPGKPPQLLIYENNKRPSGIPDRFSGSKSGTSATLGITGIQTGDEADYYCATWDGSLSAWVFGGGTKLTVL 2950
